The reported numbers originate from ChEMBL document CHEMBL3098125.

Heads up, these compounds all have IC50 values measured for Human immunodeficiency virus type 1 integrase (Human immunodeficiency virus 1).
Report as a plain number; the unit µM is understood.

Q: Which IC50 value belongs to CC(C)=CCC1C(C)=CCc2c(O)ccc(O)c21 (stereo not drawn) ?
Result: 11.5

Q: Quick check: IC50 of CC(C)=CCC1C(C)=CCc2c1ccc(O)c2O (stereo not drawn) ?
Result: 11.1

Q: Look at this compound and give its reported IC50. "CC(C)=CCCC1=CCc2ccc(O)c(O)c2C1"
Result: 13.4

---

assay: Therapeutic index, ratio of CC50 for human TZM-bl cells to IC50 for HIV1 NL4.3 infected in human TZM-bl cells; assay type: cell-based; conditions: HIV1 NL4.3 infected TZM-bl cells, read-out: Ratio CC50/IC50
I'd be grateful if you could share measured selectivity ratio for these entries.
Enter a number only.

Q: Dear colleague, I am looking for the recorded selectivity ratio of the following compound: COC(=O)C12C=CC(=O)C(O)=C1CC(CC/C=C(\C)CO)=CC2 (stereo not given)
Result: 1

Q: Look at this compound and give its reported selectivity ratio. CC(C)=CCC1C(C)=CCc2c(O)ccc(O)c21 (stereo not given)
Result: 11

Q: Reported selectivity ratio, compound CC(C)=CCC1C(C)=CCc2c1ccc(O)c2O (stereo not given) : ____
Result: 46

Q: Need selectivity ratio of "CC(C)=CCCC1=CCc2ccc(O)c(O)c2C1" , thanks.
Result: 11

Q: What selectivity ratio value was documented for this compound, COC(=O)C12C=CC(=O)C(O)=C1CC(CCC=C(C)C)=CC2 (stereo not given) ?
Result: 4
